Answer each item with its documented viability at 72 h, 6.25 µM.
- Protocol summary: Vero cell viability, MTT test, 72 h
- Format: cell-based, African green monkey
- Protocol conditions: African green monkey, Vero cells, -F127 (PBS); 6.25 µM/L; Vero, MTT, 3 days; read-out: Viability % ±s.d.
- Procedure: Before testing antiviral activity, the effect of porphyrins dissolved in PBS and Pluronic F-127 on the viability of Vero cells was evaluated. Cells were incubated for 72 h using different concentrations of porphyrins (0.39–100 μM). Viability was assessed using the MTT test (Figure S13, Table S1, Supplementary Information). […] Cell viability was assessed by MTT reduction assay. […] The solution was read on a spectrophotometer at 540 nm. […]
Express the result in % but write the number alone.

Give the value of viability at 72 h, 6.25 µM reported for the following: O=C(CC[n+]1ccccc1)Oc1ccc(-c2c3nc(c(-c4ccc(OC(=O)CC[n+]5ccccc5)cc4)c4ccc([nH]4)c(-c4ccc(OC(=O)CC[n+]5ccccc5)cc4)c4nc(c(-c5ccc(OC(=O)CC[n+]6ccccc6)cc5)c5ccc2[nH]5)C=C4)C=C3)cc1
105

Give the value of viability at 72 h, 6.25 µM reported for the following: C[n+]1ccc(-c2c3nc(c(-c4cc[n+](C)cc4)c4ccc([nH]4)c(-c4cc[n+](C)cc4)c4nc(c(-c5cc[n+](C)cc5)c5ccc2[nH]5)C=C4)C=C3)cc1 [TMePyP, reference compound]
98.5
